B1: library; numbered along this chain (parent)
chain: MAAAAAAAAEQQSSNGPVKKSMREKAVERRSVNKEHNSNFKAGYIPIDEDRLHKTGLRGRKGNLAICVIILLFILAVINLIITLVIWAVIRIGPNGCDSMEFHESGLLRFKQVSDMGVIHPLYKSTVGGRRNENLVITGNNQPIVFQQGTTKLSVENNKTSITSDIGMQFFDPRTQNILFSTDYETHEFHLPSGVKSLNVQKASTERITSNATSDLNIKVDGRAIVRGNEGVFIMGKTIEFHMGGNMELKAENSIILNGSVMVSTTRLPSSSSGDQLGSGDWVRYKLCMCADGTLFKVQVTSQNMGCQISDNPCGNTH

Variants of: B1
ASSAY: SGCB cell-surface expression functional score (HA stain, bin4 vs bin1, normalised to synonymous) (log10 ratio); higher = more cell-surface SGCB (functional)
QUANTITY KIND: SGCB cell-surface expression functional score (log10)

{"VARIANT DESCRIPTOR": "F40G", "TEST VALUE": -0.49}
{"VARIANT DESCRIPTOR": "K124V", "TEST VALUE": 0.39}
{"VARIANT DESCRIPTOR": "N63T", "TEST VALUE": 0.43}
{"VARIANT DESCRIPTOR": "V27T", "TEST VALUE": 0.04}
{"VARIANT DESCRIPTOR": "N258Y", "TEST VALUE": 0.03}
{"VARIANT DESCRIPTOR": "R227S", "TEST VALUE": 0.71}
{"VARIANT DESCRIPTOR": "A251E", "TEST VALUE": -1.22}
{"VARIANT DESCRIPTOR": "T266L", "TEST VALUE": 0.47}
{"VARIANT DESCRIPTOR": "L52Q", "TEST VALUE": 0.35}
{"VARIANT DESCRIPTOR": "N134G", "TEST VALUE": -0.09}
{"VARIANT DESCRIPTOR": "A88Y", "TEST VALUE": 0.01}
{"VARIANT DESCRIPTOR": "C307L", "TEST VALUE": -0.21}
{"VARIANT DESCRIPTOR": "I178H", "TEST VALUE": -0.39}
{"VARIANT DESCRIPTOR": "M247T", "TEST VALUE": -0.51}
{"VARIANT DESCRIPTOR": "R58Y", "TEST VALUE": 0.71}
{"VARIANT DESCRIPTOR": "T317R", "TEST VALUE": -0.1}
{"VARIANT DESCRIPTOR": "E101R", "TEST VALUE": -0.59}
{"VARIANT DESCRIPTOR": "I69Y", "TEST VALUE": 0.41}
{"VARIANT DESCRIPTOR": "S210D", "TEST VALUE": -0.42}
{"VARIANT DESCRIPTOR": "A6F", "TEST VALUE": 0.37}
{"VARIANT DESCRIPTOR": "M289Q", "TEST VALUE": -1.35}
{"VARIANT DESCRIPTOR": "N158W", "TEST VALUE": -0.42}
{"VARIANT DESCRIPTOR": "K61L", "TEST VALUE": 0.26}
{"VARIANT DESCRIPTOR": "N199I", "TEST VALUE": -0.28}
{"VARIANT DESCRIPTOR": "T163L", "TEST VALUE": -0.56}
{"VARIANT DESCRIPTOR": "Q303M", "TEST VALUE": -0.16}
{"VARIANT DESCRIPTOR": "N217A", "TEST VALUE": 0.9}
{"VARIANT DESCRIPTOR": "S38I", "TEST VALUE": -0.09}
{"VARIANT DESCRIPTOR": "M243F", "TEST VALUE": 1.18}
{"VARIANT DESCRIPTOR": "L191K", "TEST VALUE": -0.32}
{"VARIANT DESCRIPTOR": "D221N", "TEST VALUE": -0.22}
{"VARIANT DESCRIPTOR": "D221V", "TEST VALUE": 0.59}
{"VARIANT DESCRIPTOR": "I45V", "TEST VALUE": 0.48}
{"VARIANT DESCRIPTOR": "V200C", "TEST VALUE": -1.14}
{"VARIANT DESCRIPTOR": "I137P", "TEST VALUE": -1.44}
{"VARIANT DESCRIPTOR": "G280C", "TEST VALUE": -0.75}
{"VARIANT DESCRIPTOR": "Q303D", "TEST VALUE": 0.36}
{"VARIANT DESCRIPTOR": "I256G", "TEST VALUE": 0.26}
{"VARIANT DESCRIPTOR": "G274D", "TEST VALUE": -0.37}
{"VARIANT DESCRIPTOR": "M243Y", "TEST VALUE": 0.13}
{"VARIANT DESCRIPTOR": "S114L", "TEST VALUE": -1.15}
{"VARIANT DESCRIPTOR": "N304Y", "TEST VALUE": -0.11}
{"VARIANT DESCRIPTOR": "E104N", "TEST VALUE": -0.11}
{"VARIANT DESCRIPTOR": "T83D", "TEST VALUE": -0.02}
{"VARIANT DESCRIPTOR": "N15D", "TEST VALUE": -0.15}
{"VARIANT DESCRIPTOR": "M235P", "TEST VALUE": -0.94}
{"VARIANT DESCRIPTOR": "L57R", "TEST VALUE": 0.07}
{"VARIANT DESCRIPTOR": "S197V", "TEST VALUE": 1.76}
{"VARIANT DESCRIPTOR": "E156L", "TEST VALUE": -0.43}
{"VARIANT DESCRIPTOR": "N229M", "TEST VALUE": 1.28}
{"VARIANT DESCRIPTOR": "L108N", "TEST VALUE": -2.59}
{"VARIANT DESCRIPTOR": "A251I", "TEST VALUE": -0.87}
{"VARIANT DESCRIPTOR": "H103F", "TEST VALUE": -0.14}
{"VARIANT DESCRIPTOR": "A212D", "TEST VALUE": 0.56}
{"VARIANT DESCRIPTOR": "M289K", "TEST VALUE": -0.23}
{"VARIANT DESCRIPTOR": "G293M", "TEST VALUE": -0.11}
{"VARIANT DESCRIPTOR": "K34R", "TEST VALUE": 0.1}
{"VARIANT DESCRIPTOR": "F170S", "TEST VALUE": -0.47}
{"VARIANT DESCRIPTOR": "E230C", "TEST VALUE": 1.05}
{"VARIANT DESCRIPTOR": "C290A", "TEST VALUE": -0.08}
{"VARIANT DESCRIPTOR": "T151M", "TEST VALUE": -1.13}
{"VARIANT DESCRIPTOR": "R30T", "TEST VALUE": 0.19}
{"VARIANT DESCRIPTOR": "E10K", "TEST VALUE": 0.18}
{"VARIANT DESCRIPTOR": "R109L", "TEST VALUE": -0.1}
{"VARIANT DESCRIPTOR": "T151A", "TEST VALUE": -0.08}
{"VARIANT DESCRIPTOR": "F296L", "TEST VALUE": -0.05}
{"VARIANT DESCRIPTOR": "A8Y", "TEST VALUE": 0.51}
{"VARIANT DESCRIPTOR": "I255Y", "TEST VALUE": -1.08}
{"VARIANT DESCRIPTOR": "G259C", "TEST VALUE": -0.44}
{"VARIANT DESCRIPTOR": "M235H", "TEST VALUE": 0.69}
{"VARIANT DESCRIPTOR": "A2C", "TEST VALUE": 0.1}
{"VARIANT DESCRIPTOR": "R130N", "TEST VALUE": -0.47}
{"VARIANT DESCRIPTOR": "V127D", "TEST VALUE": -1.79}
{"VARIANT DESCRIPTOR": "I81A", "TEST VALUE": 0.13}
{"VARIANT DESCRIPTOR": "S99E", "TEST VALUE": -1.96}
{"VARIANT DESCRIPTOR": "I92E", "TEST VALUE": -2.15}
{"VARIANT DESCRIPTOR": "L108D", "TEST VALUE": -1.53}
{"VARIANT DESCRIPTOR": "I86V", "TEST VALUE": 0.32}
{"VARIANT DESCRIPTOR": "M100D", "TEST VALUE": -1.82}
{"VARIANT DESCRIPTOR": "Q276K", "TEST VALUE": 0.11}
{"VARIANT DESCRIPTOR": "E49D", "TEST VALUE": 0.02}
{"VARIANT DESCRIPTOR": "L107P", "TEST VALUE": -0.47}
{"VARIANT DESCRIPTOR": "G228A", "TEST VALUE": 0.3}
{"VARIANT DESCRIPTOR": "T186A", "TEST VALUE": 0.54}
{"VARIANT DESCRIPTOR": "F296Y", "TEST VALUE": 0.25}
{"VARIANT DESCRIPTOR": "L64S", "TEST VALUE": 0.31}
{"VARIANT DESCRIPTOR": "R109G", "TEST VALUE": -0.81}
{"VARIANT DESCRIPTOR": "G149V", "TEST VALUE": -0.88}
{"VARIANT DESCRIPTOR": "F146Q", "TEST VALUE": -1.34}
{"VARIANT DESCRIPTOR": "S13F", "TEST VALUE": -0.45}
{"VARIANT DESCRIPTOR": "G244M", "TEST VALUE": 1.17}

Provenance of the data: the supplement of paper PMC10266784
